Target: beta-catenin/TCF4 engagement (Homo sapiens, UniProt P35222)
Construct: expressed in transfected cells; host or cells: HEK293
Sequence (P35222 whole entry): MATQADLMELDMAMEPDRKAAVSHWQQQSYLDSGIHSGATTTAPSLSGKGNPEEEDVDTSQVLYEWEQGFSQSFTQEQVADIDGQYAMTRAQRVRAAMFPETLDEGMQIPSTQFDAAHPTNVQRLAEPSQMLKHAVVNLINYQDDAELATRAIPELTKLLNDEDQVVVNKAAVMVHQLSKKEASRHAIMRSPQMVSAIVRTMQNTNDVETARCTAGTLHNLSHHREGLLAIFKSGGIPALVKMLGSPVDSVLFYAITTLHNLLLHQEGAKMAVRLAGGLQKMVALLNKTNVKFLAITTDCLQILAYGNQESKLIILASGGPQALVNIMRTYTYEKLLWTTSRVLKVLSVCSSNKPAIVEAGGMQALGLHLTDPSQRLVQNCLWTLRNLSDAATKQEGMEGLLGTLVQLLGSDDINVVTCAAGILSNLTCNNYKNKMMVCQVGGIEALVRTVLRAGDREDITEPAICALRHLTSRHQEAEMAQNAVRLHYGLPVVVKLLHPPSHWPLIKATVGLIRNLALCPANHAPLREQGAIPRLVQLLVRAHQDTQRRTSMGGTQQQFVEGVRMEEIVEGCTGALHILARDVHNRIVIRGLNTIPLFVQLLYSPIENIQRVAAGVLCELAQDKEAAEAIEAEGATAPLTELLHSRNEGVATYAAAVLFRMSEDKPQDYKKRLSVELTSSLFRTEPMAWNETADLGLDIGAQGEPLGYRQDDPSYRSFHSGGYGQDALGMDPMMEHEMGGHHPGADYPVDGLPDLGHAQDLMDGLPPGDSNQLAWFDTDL
Assay: Nano-BRET target engagement assay (B-cat-Halo & TCF4-Luc in HEK293 cells)
Assay type: cell-based
Conditions: read-out: NanoBRET Abs IC50
MEASUREMENT_TYPE: IC50

COMPOUND: CC(=O)N1CCC[C@]12CC=CCCCC1(CCCC=CCCCOC(=O)N3CC[C@@](C(=O)N[C@@H](Cc4ccccc4)C(=O)N[C@@H](Cc4csc5ccccc45)C(=O)N[C@@H](C)C(N)=O)(C3)NC(=O)[C@H](CC(N)=O)NC(=O)[C@H](Cc3ccccc3)NC(=O)[C@H](C)NC(=O)[C@H](CCC(N)=O)NC(=O)[C@H](CCC(N)=O)NC(=O)[C@H](CC(=O)O)NC1=O)NC(=O)[C@H](CC1CCCCC1)NC(=O)[C@H](CC(N)=O)NC2=O (stereo partly drawn)
EXPERIMENTAL_VALUE: > 20 µM
--
COMPOUND: CC(=O)N1CCC[C@]12CC=CCCCC1(CCCC=CCCCCCC[C@@](C)(C(=O)N[C@@H](Cc3ccccc3Cl)C(=O)N[C@@H](Cc3csc4ccccc34)C(=O)N[C@@H](C(N)=O)[C@H](C)O)NC(=O)[C@H]([C@@H](C)O)NC(=O)[C@H](Cc3ccccc3)NC(=O)[C@H](C)NC(=O)[C@H](C)NC(=O)[C@H](CC(=O)O)NC(=O)[C@H](CC(=O)O)NC1=O)NC(=O)[C@H](CC(C)(C)C)NC(=O)[C@H](CC(=O)O)NC2=O (stereo partly drawn)
EXPERIMENTAL_VALUE: 7.7 µM

Form: item CCCC(=O)NCCCC[C@@H]1NC(=O)[C@H](C)NC(=O)[C@H](CC(=O)O)NC(=O)[C@H](CC(=O)O)NC(=O)C2(CCCC=CCCCOC(=O)N3CC[C@@](C(=O)N[C@@H](Cc4ccsc4)C(=O)N[C@@H](Cc4csc5ccccc45)C(=O)N[C@@H](CCC(N)=O)C(N)=O)(C3)NC(=O)[C@H](CC(N)=O)NC(=O)[C@H](Cc3ccccc3)NC1=O)CCCC=CC[C@]1(CCCN1C(C)=O)C(=O)N[C@@H](CC(=O)O)C(=O)N[C@@H](CC(C)(C)C)C(=O)N2 (stereo partly drawn) ; test system beta-catenin/TCF4 engagement (Homo sapiens, UniProt P35222); IC50: > 20 µM
